# reported pest or weed control at 80 g/ha; entries follow
test system: SETVI; experiment: Post-emergence action against SETVI; format: in vivo, Setaria viridis; conditions: Setaria viridis, 504 h; post-emergence, dosage 80 g/ha, visual assessment about 3 weeks after treatment vs untreated controls; read-out: Post-emergence action against SETVI (herbicidal action in percent)
Measured Property: pest or weed control at 80 g/ha (%)

[[record]]
test_smiles = "Cn1nnnc1NC(=O)c1ccc(Cl)c(C(=O)C2CC2)c1Cl"
measured_property = "pest or weed control at 80 g/ha"
result_unit = "%"
value_measured = 100

[[record]]
test_smiles = "CC(=O)c1c(C)ccc(C(=O)Nc2nnnn2C)c1Cl"
measured_property = "pest or weed control at 80 g/ha"
result_unit = "%"
value_measured = 80

[[record]]
test_smiles = "CSc1ccc(C(=O)Nc2nnnn2C)c(Cl)c1C(C)=O"
measured_property = "pest or weed control at 80 g/ha"
result_unit = "%"
value_measured = 90

[[record]]
test_smiles = "Cn1nnnc1NC(=O)c1ccc(S(C)(=O)=O)c(C(=O)C2CC2)c1Cl"
measured_property = "pest or weed control at 80 g/ha"
result_unit = "%"
value_measured = 100

[[record]]
test_smiles = "Cn1nnnc1NC(=O)c1ccc(C(F)(F)F)c(C(=O)C(F)F)c1Cl"
measured_property = "pest or weed control at 80 g/ha"
result_unit = "%"
value_measured = 80

[[record]]
test_smiles = "CC(=O)c1c(C(F)(F)F)ccc(C(=O)Nc2nnnn2C)c1Cl"
measured_property = "pest or weed control at 80 g/ha"
result_unit = "%"
value_measured = 100

[[record]]
test_smiles = "CC(=O)c1c(S(C)(=O)=O)ccc(C(=O)Nc2nnnn2C)c1C"
measured_property = "pest or weed control at 80 g/ha"
result_unit = "%"
value_measured = 90

[[record]]
test_smiles = "CCC(=O)c1c(C(F)(F)F)ccc(C(=O)Nc2nnnn2C)c1Cl"
measured_property = "pest or weed control at 80 g/ha"
result_unit = "%"
value_measured = 90

[[record]]
test_smiles = "Cn1nnnc1NC(=O)c1ccc(C(F)F)c(C(=O)C2CC2)c1Cl"
measured_property = "pest or weed control at 80 g/ha"
result_unit = "%"
value_measured = 100

[[record]]
test_smiles = "CC(=O)c1c(Cl)ccc(C(=O)Nc2nnnn2C)c1Cl"
measured_property = "pest or weed control at 80 g/ha"
result_unit = "%"
value_measured = 80

